- assaySystem: UniProt P51843
- Sequence (P51843 whole entry): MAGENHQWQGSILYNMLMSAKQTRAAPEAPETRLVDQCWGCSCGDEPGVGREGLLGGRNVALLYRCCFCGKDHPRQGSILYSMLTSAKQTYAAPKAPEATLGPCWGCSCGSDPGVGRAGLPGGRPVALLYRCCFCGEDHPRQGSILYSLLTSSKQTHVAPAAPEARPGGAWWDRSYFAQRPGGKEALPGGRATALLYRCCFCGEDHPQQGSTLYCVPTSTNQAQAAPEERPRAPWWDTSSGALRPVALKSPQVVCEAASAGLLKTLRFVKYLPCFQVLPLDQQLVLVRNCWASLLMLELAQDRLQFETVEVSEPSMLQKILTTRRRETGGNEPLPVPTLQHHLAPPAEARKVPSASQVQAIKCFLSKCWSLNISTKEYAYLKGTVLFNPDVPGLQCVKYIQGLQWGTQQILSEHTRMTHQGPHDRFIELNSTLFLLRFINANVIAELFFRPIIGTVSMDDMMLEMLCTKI
- assayExplanation: Luminescence-based cell-based high throughput dose response assay for inhibitors of the orphan nuclear receptor subfamily 0, group B, member 1 (DAX1; NR0B1). [Related pubchem assays (depositor defined):AID504766, AID504790]
- Format: functional
Activity calls are given as the source filed them.
IC50 overview

Example entries begin here.
cpdSmiles	assaySystem	result
NC(=O)CSc1nnc(-c2ccc(O)cc2)n1Cc1ccco1	UniProt P51843	> 67.6 µM (inactive)
COc1ccc(-c2nc3ncccn3c2Br)cc1	UniProt P51843	> 67.6 µM (inactive)
Brc1ccc(-c2csc(N3CCOCC3)n2)cc1	UniProt P51843	> 67.5 µM (inactive)

Would you kindly look at the next entry?
Tested system UniProt P51843; IC50 recorded for O=C(c1ccccc1)c1cnc(-c2ccccc2)s1 was > 67.6 µM (inactive)

###

IC50 overview
- assaySystem: Calpain-2 catalytic subunit (Sus scrofa, UniProt P43367)
- Sequence (P43367 whole entry): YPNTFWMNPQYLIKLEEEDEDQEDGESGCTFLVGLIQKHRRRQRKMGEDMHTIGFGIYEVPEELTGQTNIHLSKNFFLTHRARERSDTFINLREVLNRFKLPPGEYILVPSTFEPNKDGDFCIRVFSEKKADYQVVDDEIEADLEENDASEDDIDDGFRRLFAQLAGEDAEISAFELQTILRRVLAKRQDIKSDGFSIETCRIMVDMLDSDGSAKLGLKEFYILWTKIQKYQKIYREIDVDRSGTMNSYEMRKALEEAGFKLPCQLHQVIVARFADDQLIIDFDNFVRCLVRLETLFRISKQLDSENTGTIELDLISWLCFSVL
- assayExplanation: m-calpain protease blockers, concentration series – biochemical, fluorogenic peptide substrate, dose response (AID 1420)
- Type: functional

Recorded IC50 (compound Nn1c(Cc2cccc3ccccc23)nnc1SCc1ccc(Cl)c(Cl)c1 ): < 0.4 µM (not active)

Recorded IC50 (compound O=C(Nc1cccc2ccccc12)/C(Cl)=C/c1ccccc1 ): 8.93 µM (not active)

Recorded IC50 (compound CCc1sc(C(=O)N2CCc3ccccc32)cc1C ): 9.39 µM (not active)

Recorded IC50 (compound CCN1/C(=C\C=C2\C(=O)N(c3ccccc3)C(=S)N2C)Sc2ccccc21 ): > 50 µM (not active)

###

- assayExplanation: Luminescence Cell-Based Dose Response to Identify Activators of 5'UTR Stem-Loop Driven Prion Protein mRNA Translation in H4-C Neuroglioblastoma Cells. [Related pubchem assays: 1829 (Project Summary), 1814 (Primary HTS)]
- Type: functional
Calls of active or inactive are those of the source.
EC50 overview

compound	EC50
Cc1cc(-c2nnc(S)n2/N=C/C(Br)=C/c2ccccc2)[nH]n1	> 12 µM (not active)

Recorded EC50 (compound CC(NC(=O)Nc1ccc2c(c1)OCO2)C1CCCO1 (stereo not given) ): > 12 µM (not active)

Recorded EC50 (compound Cc1cc(C(=O)CSc2n[nH]c(N)n2)c(C)n1-c1ccccc1 ): 1.03 µM (active)

Recorded EC50 (compound O=C(/N=C1\SCC(=O)N1c1ccccc1Cl)c1ccccc1 ): 1.86 µM (active)

Recorded EC50 (compound O=C1OC(c2ccccc2)=C/C1=C/N1CCCCC1 ): 0.426 µM (active)

###

- assaySystem: Nonstructural protein 1 (Influenza A virus)
- Sequence (Q194T2 whole entry): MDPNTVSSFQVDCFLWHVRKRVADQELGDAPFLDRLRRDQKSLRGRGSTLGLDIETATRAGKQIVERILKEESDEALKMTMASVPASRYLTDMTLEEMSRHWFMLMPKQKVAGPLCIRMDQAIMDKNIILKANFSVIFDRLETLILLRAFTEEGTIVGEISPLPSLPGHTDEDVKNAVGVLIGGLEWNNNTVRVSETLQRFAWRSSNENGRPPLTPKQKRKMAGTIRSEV
- Type: functional, Influenza A virus (A/California/07/2009(H1N1))
The source made the active and inactive calls.
outcomeMeasure: IC50

Example entries begin here.
molecule	assaySystem	IC50
CCN(CC)CCOc1ccc2c(c1)C(=NNC(=O)c1ccccn1)c1cc(OCCN(CC)CC)ccc1-2	Nonstructural protein 1 (Influenza A virus)	13.8 µM (active)
CCN(CC)CCNC(=O)c1ccc(NC(=O)/C=C/c2ccc3ccccc3n2)cc1	Nonstructural protein 1 (Influenza A virus)	> 100 µM (active)
O=C1c2ccccc2C(=O)c2c1cccc2N1CCOCC1	Nonstructural protein 1 (Influenza A virus)	19.7 µM (active)
Cc1c(NC(=S)N/N=C\c2ccccc2O)c(=O)n(-c2ccccc2)n1C	Nonstructural protein 1 (Influenza A virus)	6.13 µM (active)
CCN1/C(=C/c2ccc3ccccc3[n+]2CC)C=Cc2ccccc21	Nonstructural protein 1 (Influenza A virus)	12.8 µM (active)

Recorded IC50 (molecule O=C(N/N=C/c1cc(Br)ccc1O)C(c1ccncc1)N1CCOCC1 (configuration not stated) ): 12.5 µM (active)

Recorded IC50 (molecule COC1=C(Nc2ccc(O)cc2)C(=O)c2ccccc2C1=O ): 24.7 µM (active)

###

- assaySystem: Type-1 angiotensin II receptor (Homo sapiens)
- Sequence (P30556 whole entry): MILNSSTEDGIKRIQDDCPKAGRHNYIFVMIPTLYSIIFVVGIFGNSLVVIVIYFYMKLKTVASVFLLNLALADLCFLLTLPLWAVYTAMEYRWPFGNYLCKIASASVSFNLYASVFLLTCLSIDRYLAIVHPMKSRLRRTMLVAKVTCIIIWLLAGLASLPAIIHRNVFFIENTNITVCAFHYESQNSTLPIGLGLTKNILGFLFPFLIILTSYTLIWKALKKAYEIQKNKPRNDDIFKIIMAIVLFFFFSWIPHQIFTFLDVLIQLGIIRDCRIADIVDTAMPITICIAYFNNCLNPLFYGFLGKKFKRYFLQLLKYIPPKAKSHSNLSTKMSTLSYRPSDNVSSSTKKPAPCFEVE
- assayExplanation: antagonism of angiotensin II type 1 receptor – cell-based, uHTS hits, selectivity assay for APJ receptor antagonist project, dose response (AID 463214);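 further: antagonist potency against angiotensin II stimulated AT1 response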
- Format: functional
The source made the active and inactive calls.
outcomeMeasure: IC50

Example entries begin here.
compound	outcomeMeasure	result
CCCCCC1CCC(c2nnc(S)n2C)CC1 (centres undefined)	IC50	> 40 µM (not active)
CN(C)CCCNC(=O)c1ccc(-c2nc(-c3ccc(Cl)cc3)cs2)cc1	IC50	22.6 µM (not active)
O=C(Cc1ccccc1)NCC(=O)OCC(=O)c1ccc(Cl)c([N+](=O)[O-])c1	IC50	9.37 µM (active)

Would you kindly look at the next entry?
Recorded IC50 (compound COc1ccccc1NC(=O)CCC(=O)OCC(=O)c1ccc(C)c([N+](=O)[O-])c1 ): 33.7 µM (not active)

###

- assaySystem: Voltage-gated N-type calcium channel alpha-1B subunit/Amyloid beta A4 precursor protein-binding family A member 1 (Homo sapiens, UniProt Q00975+Q02410)
- Format: protein assay
Active and inactive are the calls of the source.
API: response.call in t for active, f for inactive

compound	qualitativeLabel
O=C(O)CCn1cc(C=C2C(=O)NC(=S)NC2=O)c(-c2cc3ccccc3oc2=O)n1	t

Fill in: this test's call for O=C1NC(=O)C(=Cc2ccc(-c3cc(Cl)ccc3[N+](=O)[O-])o2)C(=O)N1 is ___
f

Fill in: this test's call for Cc1c(C(=O)OCC2CCCO2)[nH]c2c1C(=O)CC(c1ccco1)C2 (stereo not given) is ___
f

Fill in: this test's call for Nc1ccc2nc(-c3ccc(-c4nc5ccc(N)cc5[nH]4)cc3)[nH]c2c1 is ___
f

Fill in: this test's call for O=C(N/N=C/c1coc2ccccc2c1=O)c1cc(O)cc(O)c1 is ___
f

###

- assaySystem: Fatty acid synthase (Homo sapiens, UniProt P49327)
- Sequence (P49327 whole entry): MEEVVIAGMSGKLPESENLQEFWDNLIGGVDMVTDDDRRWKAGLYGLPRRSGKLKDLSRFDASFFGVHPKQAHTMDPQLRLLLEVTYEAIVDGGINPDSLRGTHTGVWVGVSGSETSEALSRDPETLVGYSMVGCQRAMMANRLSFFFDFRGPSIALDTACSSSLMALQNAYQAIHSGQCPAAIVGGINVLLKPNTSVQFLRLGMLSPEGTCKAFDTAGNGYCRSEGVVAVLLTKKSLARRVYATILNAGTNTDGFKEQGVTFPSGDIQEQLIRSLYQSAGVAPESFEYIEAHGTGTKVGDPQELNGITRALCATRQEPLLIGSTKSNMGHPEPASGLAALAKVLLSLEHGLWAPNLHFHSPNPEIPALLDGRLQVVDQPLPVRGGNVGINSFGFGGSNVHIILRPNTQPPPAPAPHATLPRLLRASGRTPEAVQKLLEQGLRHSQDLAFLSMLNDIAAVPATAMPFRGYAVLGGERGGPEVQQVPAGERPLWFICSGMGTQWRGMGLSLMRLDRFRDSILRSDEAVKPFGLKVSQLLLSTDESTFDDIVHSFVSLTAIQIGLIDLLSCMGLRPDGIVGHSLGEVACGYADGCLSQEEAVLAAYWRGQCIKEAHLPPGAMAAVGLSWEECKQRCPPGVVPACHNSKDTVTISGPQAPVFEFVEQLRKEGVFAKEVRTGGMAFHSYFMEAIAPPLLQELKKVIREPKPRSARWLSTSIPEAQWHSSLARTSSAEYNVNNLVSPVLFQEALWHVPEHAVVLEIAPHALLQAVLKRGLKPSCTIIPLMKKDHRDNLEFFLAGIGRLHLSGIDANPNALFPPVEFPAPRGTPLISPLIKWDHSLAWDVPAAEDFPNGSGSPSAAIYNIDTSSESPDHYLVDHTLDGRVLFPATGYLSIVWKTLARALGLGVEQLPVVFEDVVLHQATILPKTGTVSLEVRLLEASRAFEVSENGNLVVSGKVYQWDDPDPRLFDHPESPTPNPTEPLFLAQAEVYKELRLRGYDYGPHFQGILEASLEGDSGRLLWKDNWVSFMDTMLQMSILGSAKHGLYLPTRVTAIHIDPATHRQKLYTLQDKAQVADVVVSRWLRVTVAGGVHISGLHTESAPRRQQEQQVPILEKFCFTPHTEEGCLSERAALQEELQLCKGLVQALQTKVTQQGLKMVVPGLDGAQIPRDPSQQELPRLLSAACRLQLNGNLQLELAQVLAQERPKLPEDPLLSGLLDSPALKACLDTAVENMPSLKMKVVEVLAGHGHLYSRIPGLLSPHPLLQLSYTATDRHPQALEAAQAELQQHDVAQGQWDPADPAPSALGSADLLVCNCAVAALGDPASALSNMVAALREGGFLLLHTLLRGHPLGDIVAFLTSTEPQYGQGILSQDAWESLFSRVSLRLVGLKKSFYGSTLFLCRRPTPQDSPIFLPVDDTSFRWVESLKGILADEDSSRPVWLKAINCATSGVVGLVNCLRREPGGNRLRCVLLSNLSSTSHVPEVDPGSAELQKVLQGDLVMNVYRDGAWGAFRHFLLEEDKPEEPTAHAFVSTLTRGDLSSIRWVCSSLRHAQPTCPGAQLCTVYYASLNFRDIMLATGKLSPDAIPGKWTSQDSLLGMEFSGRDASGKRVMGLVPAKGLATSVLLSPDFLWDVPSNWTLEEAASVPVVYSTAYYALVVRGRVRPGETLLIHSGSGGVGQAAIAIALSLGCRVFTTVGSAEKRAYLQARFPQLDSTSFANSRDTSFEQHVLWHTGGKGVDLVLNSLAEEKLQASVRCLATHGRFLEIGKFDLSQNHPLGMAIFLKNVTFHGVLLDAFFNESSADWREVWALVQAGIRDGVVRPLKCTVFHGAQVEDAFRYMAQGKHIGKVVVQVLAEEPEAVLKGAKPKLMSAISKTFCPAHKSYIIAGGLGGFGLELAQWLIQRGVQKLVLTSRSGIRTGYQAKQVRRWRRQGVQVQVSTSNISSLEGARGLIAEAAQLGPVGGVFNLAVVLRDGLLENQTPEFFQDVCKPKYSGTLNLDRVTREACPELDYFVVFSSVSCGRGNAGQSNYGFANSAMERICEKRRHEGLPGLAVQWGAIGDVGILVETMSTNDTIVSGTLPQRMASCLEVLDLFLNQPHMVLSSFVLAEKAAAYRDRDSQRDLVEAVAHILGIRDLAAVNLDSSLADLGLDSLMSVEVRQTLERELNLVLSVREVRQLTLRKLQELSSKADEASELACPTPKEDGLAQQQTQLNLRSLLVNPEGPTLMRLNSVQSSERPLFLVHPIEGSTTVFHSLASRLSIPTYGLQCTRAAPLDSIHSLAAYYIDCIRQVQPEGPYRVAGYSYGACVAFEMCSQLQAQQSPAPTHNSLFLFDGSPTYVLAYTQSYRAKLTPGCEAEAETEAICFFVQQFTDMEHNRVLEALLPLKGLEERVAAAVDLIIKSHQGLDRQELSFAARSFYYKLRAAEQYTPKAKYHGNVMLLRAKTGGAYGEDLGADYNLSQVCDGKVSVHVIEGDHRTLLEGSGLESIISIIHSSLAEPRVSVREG
- assayExplanation: inhibition of human FAS-TE enzyme activity – biochemical, endpoint fluorescence intensity, uHTS hits, dose response (AID 624327);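 further: fluorescence from hydrolysis of an O-methyl fluorescein acyl ester substrate by the enzyme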
- Type: functional
Calls of active or inactive are those of the source.
API: response.call in t for active, f for inactive

Take a look at these entries with their results.
compound	qualitativeLabel
CCOC(=O)[C@@H]1[C@H]2COc3cc(OC)ccc3[C@H]2N2C(=O)N(c3cccc(Cl)c3)C(=O)[C@@]12C	f
CCc1nc2c(OCc3ccc(Cl)cc3)cccn2c1N(C=O)Cc1ccccc1	t
Cc1ccc(NC(=O)CN(C)C(=O)c2ccc(Cl)c([N+](=O)[O-])c2)cc1	t
Cc1cc(=O)oc2cc(OCC(=O)N3CCN(C(C)c4ccccc4)CC3)c(Cl)cc12 (centres undefined)	t

Fill in: this test's call for COc1ccc([N+](=O)[O-])cc1NC(=O)C1(c2ccccc2)CCOCC1 is ___
t

Fill in: this test's call for Cc1ccc(S(=O)(=O)c2nnn3c2nc(N2CCC(C(N)=O)CC2)c2ccccc23)cc1C is ___
t

Fill in: this test's call for COc1ccc(-c2cc(=O)oc3c(C)c(OCc4nn[nH]n4)ccc23)cc1 is ___
t

Fill in: this test's call for CCn1cc([N+](=O)[O-])c(C(=O)N2N=C(c3ccccc3)CC2c2ccc([N+](=O)[O-])cc2)n1 (centres undefined) is ___
t

Fill in: this test's call for CC(=O)N1N=C(c2cccc([N+](=O)[O-])c2)OC1c1cccc(Br)c1 (centres undefined) is ___
t

###

EC50 overview
- assayExplanation: luciferase reporter signal suppression in cells – H4 neuroglioma cells, luminescence, dose response (AID 1990)
- Format: functional, cell-based
The source made the active and inactive calls.

Example entries begin here.
compound	result
Cc1c(C(=O)Nc2nonc2-c2ccc(F)cc2)oc2ccc(F)cc12	> 120 µM (not active)
COc1cc(C(=O)Nc2sc3c(c2C(=O)O)CCC(C)C3)cc(OC)c1OC (centres undefined)	> 120 µM (not active)
COc1ccc2nc(Nc3nc(O)cc(CSc4nc5ccccc5[nH]4)n3)nc(C)c2c1	5.63 µM (active)
O=C(CN1CCOCC1)Nc1cccc(Cl)c1Cl	> 120 µM (not active)

Recorded EC50 (compound Cc1cc(NC(=O)CSc2nc3ccccc3c(=O)n2C2CCCC2)no1 ): 4.73 µM (inconclusive)

Recorded EC50 (compound CCC1CN(C(=O)N2CCC(C(=O)NCc3ccc(C)o3)CC2)c2ccccc2O1 (centres undefined) ): > 120 µM (not active)

Recorded EC50 (compound COc1cc(C(=O)NC(=S)N(CCc2ccccc2)CCc2ccccc2)cc(OC)c1OC ): > 120 µM (not active)

Recorded EC50 (compound CN(C)c1nc(N)nc(CSc2nnnn2-c2cccc3ccccc23)n1 ): > 120 µM (not active)

Recorded EC50 (compound COc1ccc(C(=O)/N=C2\SC3CS(=O)(=O)CC3N2Cc2ccccc2)cc1OC (centres undefined) ): 26.2 µM (active)

Recorded EC50 (compound COc1ccc(CNc2ncc(-c3ccc(F)cc3)n2C)c2ccccc12 ): 10 µM (active)

Recorded EC50 (compound CC1C(=O)C(C)C(c2ccc(Cl)cc2)NC1c1ccc(Cl)cc1 (centres undefined) ): 13.8 µM (active)

Recorded EC50 (compound Oc1c(CN2CCN(c3ccc(F)cc3)CC2)cc(Cl)c2cccnc12 ): 0.2 µM (active)

Recorded EC50 (compound O=C(O)CCCc1ccc(N(CCCl)CCCl)cc1 [CHLORAMBUCIL] ): > 120 µM (not active)

Recorded EC50 (compound CCCCn1c(SCc2ccc(Cl)cc2)nc2c1c(=O)[nH]c(=O)n2C ): 15.8 µM (active)
